# maps each entry to its pIC50
# Test system: PC-3
# test_details: Antiproliferative activity against human PC3 cells measured after 48 hrs by MTT assay
# Assay type: functional, cell-based
# setup_conditions: PC-3, 48 h
pIC50: −log10 of the molar value.
test_readout: pIC50

[[record]]
compound_structure = "CO[C@H]1C[C@@H](O[C@H]2[C@@H](OC)C[C@H](O[C@H]3CC[C@@]4(C)C(=CC[C@@H]5[C@@H]4CC[C@]46C(=O)O[C@H](C)[C@H]4CC[C@]56O)C3)O[C@@H]2C)O[C@H](C)[C@H]1O"
assay_result = "< 4.30"

[[record]]
compound_structure = "CO[C@H]1C[C@@H](O[C@H]2[C@@H](O)C[C@H](O[C@H]3CC[C@@]4(C)C(=CC[C@@H]5[C@@H]4CC[C@]46C(=O)O[C@H](C)[C@H]4CC[C@]56O)C3)O[C@@H]2C)O[C@H](C)[C@H]1O"
assay_result = "< 4.30"

